- EXPERIMENTAL_PROTOCOL: Pharmacokinetics in mice
- Format: in vivo
- RUN_PARAMETERS: mouse, plasma, iv, 5 mg/kg
MEASURED_QUANTITY: Tmax (min)
One number for each entry, in min.

For this molecule ( C=CC(=O)Nc1cccc(-c2nc(Nc3cccc(N4CCOCC4)c3)nc3[nH]ncc23)c1 [Compound 3] ), measured Tmax is 4.8

* * *

- EXPERIMENTAL_PROTOCOL: Pharmacokinetics in mice
- Type: in vivo
- RUN_PARAMETERS: mouse, plasma, iv, 5 mg/kg
MEASURED_QUANTITY: Cmax (ng/mL)
Numbers only, in ng/mL.

Summary for this compound, C=CC(=O)Nc1cccc(-c2nc(Nc3cccc(N4CCOCC4)c3)nc3[nH]ncc23)c1 [Compound 3] : Cmax is 3520

* * *

- EXPERIMENTAL_PROTOCOL: Microsomal stability
- Assay type: in vitro ADME, mouse
- RUN_PARAMETERS: mouse, microsomes, mouse microsomes; read-out: t1/2, calculated half-life in parentheses
MEASURED_QUANTITY: half-life at 1 μM (min)
Numbers only, in min.

Record "C=CC(=O)Nc1cccc(-c2nc(Nc3cccc(N4CCOCC4)c3)nc3[nH]ncc23)c1" . Reported half-life at 1 μM: 8.6

* * *

- TARGET_UNDER_TEST: Cytochrome P450 3A4 (Homo sapiens)
- Construct: purchased Invitrogen
- Sequence (P08684 whole entry): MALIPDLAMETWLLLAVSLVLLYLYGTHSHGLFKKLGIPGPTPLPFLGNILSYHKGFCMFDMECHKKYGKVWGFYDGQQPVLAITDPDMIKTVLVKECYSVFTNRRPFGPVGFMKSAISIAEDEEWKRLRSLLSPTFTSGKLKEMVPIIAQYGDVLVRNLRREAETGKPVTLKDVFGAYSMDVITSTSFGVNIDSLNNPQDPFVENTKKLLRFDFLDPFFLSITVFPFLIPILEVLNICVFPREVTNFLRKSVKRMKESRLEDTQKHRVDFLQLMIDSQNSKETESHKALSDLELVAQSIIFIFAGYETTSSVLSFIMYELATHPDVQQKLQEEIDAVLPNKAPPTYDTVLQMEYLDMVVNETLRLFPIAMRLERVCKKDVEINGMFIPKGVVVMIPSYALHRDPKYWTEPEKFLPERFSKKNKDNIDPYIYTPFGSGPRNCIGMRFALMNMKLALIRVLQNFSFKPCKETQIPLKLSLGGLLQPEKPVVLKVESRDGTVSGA
- EXPERIMENTAL_PROTOCOL: Cytochrome P450 inhibition (P450 BACULOSOMES, Vivid substrates)
- Assay type: in vitro ADME
- RUN_PARAMETERS: BOMCC substrate; read-out: CYP Activity 3A4/BOMCC IC50
MEASURED_QUANTITY: IC50 (nM)
Answers are plain numbers, in nM.

IC50 measured on "C=CC(=O)Nc1cccc(-c2nc(Nc3cccc(N4CCOCC4)c3)nc3[nH]ncc23)c1" = 670

* * *

- TARGET_UNDER_TEST: Cytochrome P450 2C19 (Homo sapiens, UniProt P33261)
- Sequence (P33261 whole entry): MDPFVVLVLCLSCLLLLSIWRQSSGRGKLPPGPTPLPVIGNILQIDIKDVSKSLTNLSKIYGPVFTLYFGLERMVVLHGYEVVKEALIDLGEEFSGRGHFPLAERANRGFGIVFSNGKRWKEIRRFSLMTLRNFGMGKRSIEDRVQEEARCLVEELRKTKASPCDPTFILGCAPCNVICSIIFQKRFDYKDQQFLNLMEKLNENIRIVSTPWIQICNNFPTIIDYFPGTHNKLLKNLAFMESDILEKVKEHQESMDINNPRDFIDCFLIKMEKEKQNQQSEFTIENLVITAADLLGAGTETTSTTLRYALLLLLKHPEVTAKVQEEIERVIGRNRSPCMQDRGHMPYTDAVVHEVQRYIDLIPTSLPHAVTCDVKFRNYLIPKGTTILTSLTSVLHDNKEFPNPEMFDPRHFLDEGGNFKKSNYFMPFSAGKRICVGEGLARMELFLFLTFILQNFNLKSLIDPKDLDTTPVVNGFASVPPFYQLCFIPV
MEASURED_QUANTITY: IC50 (µM)
Give bare numbers, in µM.

Memo: "C=CC(=O)Nc1cccc(-c2nc(Nc3cccc(N4CCOCC4)c3)nc3[nH]ncc23)c1" , reported IC50: 2.63

* * *

- EXPERIMENTAL_PROTOCOL: Plasma stability assay
- Assay type: in vitro ADME
- Parameters: dose or concentration left out as unconfirmed
- RUN_PARAMETERS: rat plasma
- Experimental: The representative compound, compound 3, was also assessed in a plasma stability assay. Briefly, the compound was present at a concentration […] in plasma from three mammalian species (human, rat, and mouse). The concentration of intact drug (i.e. unmodified drug) at the indicated time points was determined using a LC-MS/MS assay. The data are consistent with good drug stability under the conditions tested.
MEASURED_QUANTITY: half-life

Data point: "C=CC(=O)Nc1cccc(-c2nc(Nc3cccc(N4CCOCC4)c3)nc3[nH]ncc23)c1" ; half-life = > 2 h

* * *

- EXPERIMENTAL_PROTOCOL: Caco-2 bidirectional permeability assay
- Type: in vitro ADME
- RUN_PARAMETERS: human, Caco-2, Caco-2, A-B; read-out: % Recovery A-B
- Method: Cell membrane permeability is an important drug characteristic. Typically, a drug candidate is test in a Caco-2 cell transmembrane permeability assay. Compound 3 was tested in a bidirectional permeability assay, and the results are shown in Table V. The data are consistent with the representative compound having good cellular membrane permeability, and the efflux ratio is consistent with active efflux of the drug from cell. The study was conducted using standard techniques known in the art.
MEASURED_QUANTITY: recovery (%)
Answers are plain numbers, in %.

Consider C=CC(=O)Nc1cccc(-c2nc(Nc3cccc(N4CCOCC4)c3)nc3[nH]ncc23)c1 [Compound 3] . Its measured recovery is 41

* * *

- EXPERIMENTAL_PROTOCOL: Pharmacokinetics in mice
- Format: in vivo
- RUN_PARAMETERS: mouse, plasma, po, 10 mg/kg, p.o. (HCl salt), 10 mg/kg oral gavage
MEASURED_QUANTITY: Cmax (ng/mL)
One number for each entry, in ng/mL.

Looking up "C=CC(=O)Nc1cccc(-c2nc(Nc3cccc(N4CCOCC4)c3)nc3[nH]ncc23)c1" , I see its Cmax listed as 465

* * *

- EXPERIMENTAL_PROTOCOL: Pharmacokinetics in rat
- Type: in vivo, male Sprague Dawley rats
- RUN_PARAMETERS: male, Sprague Dawley, plasma, PO 20 mg/kg, solution, read-out: Tmax (median)
MEASURED_QUANTITY: Tmax

Form: compound = "C=CC(=O)Nc1cccc(-c2nc(Nc3cccc(N4CCOCC4)c3)nc3[nH]ncc23)c1" ; Tmax = 2 h

* * *

- EXPERIMENTAL_PROTOCOL: Pharmacokinetics in mice
- Assay type: in vivo
- RUN_PARAMETERS: mouse, plasma, po, 10 mg/kg, p.o. (base form), 10 mg/kg oral gavage
MEASURED_QUANTITY: Tmax (min)
One number for each entry, in min.

Entry "C=CC(=O)Nc1cccc(-c2nc(Nc3cccc(N4CCOCC4)c3)nc3[nH]ncc23)c1" , Tmax reported as 30

* * *

- EXPERIMENTAL_PROTOCOL: Pharmacokinetics in rat
- Type: in vivo, male Sprague Dawley rats
- RUN_PARAMETERS: male, Sprague Dawley, plasma, IV 5 mg/kg, solution
MEASURED_QUANTITY: half-life

Entry C=CC(=O)Nc1cccc(-c2nc(Nc3cccc(N4CCOCC4)c3)nc3[nH]ncc23)c1 [SC-1344] — recorded half-life = 163 min

* * *

- EXPERIMENTAL_PROTOCOL: Pharmacokinetics in mice
- Type: in vivo
- RUN_PARAMETERS: mouse, plasma, iv, 5 mg/kg, read-out: Vss
MEASURED_QUANTITY: Vd (L/kg)
One number for each entry, in L/kg.

Entry C=CC(=O)Nc1cccc(-c2nc(Nc3cccc(N4CCOCC4)c3)nc3[nH]ncc23)c1 [Compound 3] — recorded Vd = 2.6

* * *

- EXPERIMENTAL_PROTOCOL: Microsomal stability
- Format: in vitro ADME, mouse
- RUN_PARAMETERS: mouse, microsomes, mouse microsomes; expressed as < shortest incubation time; read-out: t1/2
MEASURED_QUANTITY: half-life at 1 μM

Record "C=CC(=O)Nc1cccc(-c2nc(Nc3cccc(N4CCOCC4)c3)nc3[nH]ncc23)c1" . Reported half-life at 1 μM: < 10 min

* * *

- EXPERIMENTAL_PROTOCOL: Microsomal stability
- Format: in vitro ADME, human
- RUN_PARAMETERS: human microsomes; read-out: CLinit (intrinsic clearance)
MEASURED_QUANTITY: microsomal CLint at 1 μM (µL/min/mg)
Numbers only, in µL/min/mg.

Note to self: microsomal CLint at 1 μM recorded for C=CC(=O)Nc1cccc(-c2nc(Nc3cccc(N4CCOCC4)c3)nc3[nH]ncc23)c1 [Compound 3] was 85

* * *

- EXPERIMENTAL_PROTOCOL: Pharmacokinetics in rat
- Assay type: in vivo, male Sprague Dawley rats
- RUN_PARAMETERS: male, Sprague-Dawley, plasma, PO 20 mg/kg, solution, read-out: AUC0-t
MEASURED_QUANTITY: AUC(0-t) (ng·h/mL)
Give bare numbers, in ng·h/mL.

Noted for C=CC(=O)Nc1cccc(-c2nc(Nc3cccc(N4CCOCC4)c3)nc3[nH]ncc23)c1 [Compound 3] : its AUC(0-t) reads 104

* * *

- EXPERIMENTAL_PROTOCOL: Pharmacokinetics in rat
- Format: in vivo, male Sprague Dawley rats
- RUN_PARAMETERS: male, Sprague Dawley, plasma, PO 20 mg/kg, solution, read-out: Cmax
MEASURED_QUANTITY: Cmax
Answer with the figure and its unit, nothing else.

Query "C=CC(=O)Nc1cccc(-c2nc(Nc3cccc(N4CCOCC4)c3)nc3[nH]ncc23)c1" yields Cmax of 23.1 ng/mL

* * *

- TARGET_UNDER_TEST: BMX/ETK (Homo sapiens)
- Sequence (P51813 1-675): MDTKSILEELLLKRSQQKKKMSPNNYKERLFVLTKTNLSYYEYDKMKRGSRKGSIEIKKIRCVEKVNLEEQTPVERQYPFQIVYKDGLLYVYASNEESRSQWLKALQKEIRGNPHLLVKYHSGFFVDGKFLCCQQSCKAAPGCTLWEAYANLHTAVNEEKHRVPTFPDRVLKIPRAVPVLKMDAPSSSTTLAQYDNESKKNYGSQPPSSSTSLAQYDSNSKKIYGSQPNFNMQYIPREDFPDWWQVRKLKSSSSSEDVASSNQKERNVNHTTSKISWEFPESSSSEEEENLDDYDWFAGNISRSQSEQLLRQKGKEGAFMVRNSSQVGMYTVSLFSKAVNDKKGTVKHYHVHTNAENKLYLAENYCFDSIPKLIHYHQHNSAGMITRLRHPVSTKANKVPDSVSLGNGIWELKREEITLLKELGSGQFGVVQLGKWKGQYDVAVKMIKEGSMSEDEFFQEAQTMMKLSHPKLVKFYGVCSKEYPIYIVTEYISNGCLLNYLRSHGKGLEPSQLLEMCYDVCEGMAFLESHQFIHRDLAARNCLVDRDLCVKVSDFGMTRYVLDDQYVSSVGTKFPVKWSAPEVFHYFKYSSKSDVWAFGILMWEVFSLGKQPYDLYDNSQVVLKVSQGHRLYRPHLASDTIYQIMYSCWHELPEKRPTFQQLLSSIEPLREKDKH
- EXPERIMENTAL_PROTOCOL: Specific kinase IC50 assay
- Format: biochemical
- RUN_PARAMETERS: 1 μM ATP, 10-dose, duplicate
MEASURED_QUANTITY: pIC50
Give bare numbers, as −log10 of the molar value.

Form field, pIC50 with BMX/ETK (Homo sapiens), item "C=CC(=O)Nc1cccc(-c2nc(Nc3cccc(N4CCOCC4)c3)nc3[nH]ncc23)c1" : 8.03
